# ASSAY SYSTEM: Telomerase reverse transcriptase (Homo sapiens)
# PROTOCOL TEXT: Residual activity of human TERT in H1299 cells at 10 uM after 24 hrs by SEAP reporter gene assay
# residual activity annotations

{"SMI": "Cc1ccc(C(=O)Nc2c(NC(=O)CN3CCN(c4ccccc4)CC3)ccc3c2C(=O)c2ccccc2C3=O)cc1", "ASSAY SYSTEM": "Telomerase reverse transcriptase (Homo sapiens)", "residual activity (%)": 88}
{"SMI": "O=C(CCl)Nc1ccc2c(c1NC(=O)c1ccccc1Cl)C(=O)c1ccccc1C2=O", "ASSAY SYSTEM": "Telomerase reverse transcriptase (Homo sapiens)", "residual activity (%)": 5}
{"SMI": "Cc1ccc(C(=O)Nc2c(NC(=O)CN3CCN(c4ncccn4)CC3)ccc3c2C(=O)c2ccccc2C3=O)cc1", "ASSAY SYSTEM": "Telomerase reverse transcriptase (Homo sapiens)", "residual activity (%)": 79}
{"SMI": "O=C(CCl)Nc1ccc2c(c1NC(=O)Cc1ccc(F)cc1)C(=O)c1ccccc1C2=O", "ASSAY SYSTEM": "Telomerase reverse transcriptase (Homo sapiens)", "residual activity (%)": 8}
{"SMI": "Cc1ccc(C(=O)Nc2c(NC(=O)CCl)ccc3c2C(=O)c2ccccc2C3=O)cc1", "ASSAY SYSTEM": "Telomerase reverse transcriptase (Homo sapiens)", "residual activity (%)": 0}

====

# System: HCC 2998
# PROTOCOL TEXT: Cytotoxicity against human HCC2998 cells assessed as cellular growth at 10 uM
# Assay type: functional
Examples of compounds with documented Activity follow.

{"SMI": "Cc1ccc(C(=O)Nc2c(NC(=O)CN3CCN(C)CC3)ccc3c2C(=O)c2ccccc2C3=O)cc1", "ASSAY SYSTEM": "HCC 2998", "Activity (%)": 28.97}
{"SMI": "Cc1ccc(C(=O)Nc2ccc3c(c2NC(=O)c2ccc(C)cc2)C(=O)c2ccccc2C3=O)cc1", "ASSAY SYSTEM": "HCC 2998", "Activity (%)": 84.68}
{"SMI": "O=C(CCl)Nc1ccc2c(c1NC(=O)Cc1ccccc1)C(=O)c1ccccc1C2=O", "ASSAY SYSTEM": "HCC 2998", "Activity (%)": 94.74}
{"SMI": "Cc1ccc(C(=O)Nc2c(NC(=O)CN3CCCC3)ccc3c2C(=O)c2ccccc2C3=O)cc1", "ASSAY SYSTEM": "HCC 2998", "Activity (%)": 84.6}

====

Collected Activity values appear next to each entry.
# Tested on: LOX IMVI
# PROTOCOL TEXT: Cytotoxicity against human LOXIMVI cells assessed as cellular growth at 10 uM
# Type: functional

{"SMI": "O=C(CCl)Nc1ccc2c(c1NC(=O)Cc1ccccc1)C(=O)c1ccccc1C2=O", "ASSAY SYSTEM": "LOX IMVI", "Activity / %": 36.29}
{"SMI": "Cc1ccc(C(=O)Nc2c(NC(=O)CCl)ccc3c2C(=O)c2ccccc2C3=O)cc1", "ASSAY SYSTEM": "LOX IMVI", "Activity / %": -57.05}
{"SMI": "Cc1ccc(C(=O)Nc2ccc3c(c2NC(=O)c2ccc(C)cc2)C(=O)c2ccccc2C3=O)cc1", "ASSAY SYSTEM": "LOX IMVI", "Activity / %": 84.41}
{"SMI": "Cc1ccc(C(=O)Nc2c(NC(=O)CN3CCN(C)CC3)ccc3c2C(=O)c2ccccc2C3=O)cc1", "ASSAY SYSTEM": "LOX IMVI", "Activity / %": 1.24}
{"SMI": "Cc1ccc(C(=O)Nc2c(NC(=O)CN3CCCC3)ccc3c2C(=O)c2ccccc2C3=O)cc1", "ASSAY SYSTEM": "LOX IMVI", "Activity / %": 80.62}
